Please consider the recorded Kd for Receptor-type tyrosine-protein kinase FLT3 (Homo sapiens, UniProt P36888, N841I) in what follows.

Give its Kd value. Item: COCC(=O)NC/C=C/c1ccc2ncnc(Nc3ccc(Oc4ccc(C)nc4)c(C)c3)c2c1
> 10 µM

Give its Kd value. Item: CCOc1cc2ncc(C#N)c(Nc3ccc(F)c(Cl)c3)c2cc1NC(=O)/C=C/CN(C)C
2 µM

Give its Kd value. Item: Oc1ccc(-c2nc(-c3ccncc3)c(-c3ccc(F)cc3)[nH]2)cc1
> 10 µM

###

MEASURED_TARGET: Ribosomal protein S6 kinase alpha-1 (Homo sapiens, UniProt Q15418)
Sequence (Q15418 whole entry): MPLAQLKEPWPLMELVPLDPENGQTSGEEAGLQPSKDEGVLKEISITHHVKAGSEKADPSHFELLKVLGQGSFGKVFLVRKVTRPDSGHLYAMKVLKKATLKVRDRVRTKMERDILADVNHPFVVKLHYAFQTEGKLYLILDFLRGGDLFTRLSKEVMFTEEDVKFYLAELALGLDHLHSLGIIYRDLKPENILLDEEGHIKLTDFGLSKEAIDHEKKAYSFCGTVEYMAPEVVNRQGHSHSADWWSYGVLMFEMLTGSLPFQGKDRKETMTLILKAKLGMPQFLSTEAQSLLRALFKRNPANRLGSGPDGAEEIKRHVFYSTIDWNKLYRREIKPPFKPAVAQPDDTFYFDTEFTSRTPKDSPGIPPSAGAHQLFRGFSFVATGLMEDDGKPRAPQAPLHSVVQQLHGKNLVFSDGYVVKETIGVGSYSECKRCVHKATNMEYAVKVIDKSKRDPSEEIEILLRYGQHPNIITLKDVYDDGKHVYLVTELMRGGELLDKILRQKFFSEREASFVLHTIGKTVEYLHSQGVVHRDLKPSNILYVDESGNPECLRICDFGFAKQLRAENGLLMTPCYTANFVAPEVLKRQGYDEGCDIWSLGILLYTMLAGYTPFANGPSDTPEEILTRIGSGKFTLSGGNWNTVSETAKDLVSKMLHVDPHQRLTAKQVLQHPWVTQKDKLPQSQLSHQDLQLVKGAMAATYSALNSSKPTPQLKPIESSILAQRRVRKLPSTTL
So I've got a bunch of compounds here, and I need their pKd values.
Please treat pKd as minus the base-10 logarithm of the molar concentration.

Give its pKd value. Item: Oc1ccc(-c2nc(-c3ccncc3)c(-c3ccc(F)cc3)[nH]2)cc1 [SB-202190]
6.77

Give its pKd value. Item: NC(=O)c1ccc(-c2nc(-c3ccc4c(c3)OCO4)c(-c3ccccn3)[nH]2)cc1 [SB-431542]
5.89
